- system under test: human FAAH (Homo sapiens)
- Construct: made in house; host or cells: E. coli
- Sequence (O00519 whole entry): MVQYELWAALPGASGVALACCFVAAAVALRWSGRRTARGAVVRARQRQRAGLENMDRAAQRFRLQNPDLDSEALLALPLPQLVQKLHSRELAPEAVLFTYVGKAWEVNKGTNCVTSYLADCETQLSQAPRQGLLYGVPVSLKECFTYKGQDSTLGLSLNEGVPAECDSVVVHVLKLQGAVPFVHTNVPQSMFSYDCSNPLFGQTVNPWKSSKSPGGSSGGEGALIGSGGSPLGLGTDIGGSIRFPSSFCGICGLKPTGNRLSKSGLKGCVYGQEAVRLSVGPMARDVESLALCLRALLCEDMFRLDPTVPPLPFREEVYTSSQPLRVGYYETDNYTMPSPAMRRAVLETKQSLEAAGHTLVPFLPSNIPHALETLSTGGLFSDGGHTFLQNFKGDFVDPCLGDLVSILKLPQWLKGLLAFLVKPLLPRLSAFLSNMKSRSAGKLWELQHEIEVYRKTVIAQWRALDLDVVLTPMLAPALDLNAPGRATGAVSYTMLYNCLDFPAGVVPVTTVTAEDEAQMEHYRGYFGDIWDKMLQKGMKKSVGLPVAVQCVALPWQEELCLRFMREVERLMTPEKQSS
- test details: FAAH assay, human FAAH enzyme inhibition (kinact/Ki)
- Type: biochemical
- assay conditions: oleamide substrate 50 μM, 30° C., read-out: hFAAH kinact/Ki
assay metric: kinact/KI (M⁻¹ s⁻¹)

Use the examples below as a reference point.
| chemical smiles | scale unit | kinact/KI |
| --- | --- | --- |
| Cc1noc(NC(=O)N2CCC3(CC2)CC(c2cccc(C(F)(F)F)c2)C3)c1C | M⁻¹ s⁻¹ | 3060 |
| O=C(Nc1noc2ccccc12)N1CCC2(CC1)CC(c1cccc(Oc3ccc(C(F)(F)F)cn3)c1)C2 | M⁻¹ s⁻¹ | 1030 |
| Cc1noc(NC(=O)N2CCC3(CC2)CC(c2noc(-c4ccc(C(F)(F)F)cc4)n2)C3)c1C | M⁻¹ s⁻¹ | 1600 |
| Cc1ccc(C2CC3(CCN(C(=O)Nc4onc(C)c4C)CC3)C2)cc1C | M⁻¹ s⁻¹ | 2820 |
| Cc1cc(C2CC3(CCN(C(=O)Nc4onc(C)c4C)CC3)C2)ccc1F | M⁻¹ s⁻¹ | 3950 |

I = Cc1noc(NC(=O)N2CCC3(CC2)CC(c2cccc(OC(F)(F)F)c2)C3)c1C
II = Cn1nnnc1NC(=O)N1CCC2(CC1)CC(c1cccc(C(F)(F)F)c1)C2
III = Cc1noc(NC(=O)N2CCC3(CC2)CC(c2cccc(-c4cccc(F)c4)c2)C3)c1C
Please list these compounds in decreasing order of kinact/KI. Write the labels out in the order the request specifies.
II, I, III
(II: 12400 M⁻¹ s⁻¹, I: 2830 M⁻¹ s⁻¹, III: 1100 M⁻¹ s⁻¹)
